Reference for the values: patent US12378201B2

System: 22rv1
Experiment: Effect on 22rv1 cell viability
Details: at 1 μM (stated in cell)
Method: The initial interest was to see the importance of length of side chain on B-3. […] Relative cell growth can be assessed using the MTT (3-(4,5-dimethylthiazol-2-yl)-2,5-diphenyltetrazolium bromide) assay, a colorimetric assay for assessing cell metabolic activity. […] Plates were shaken for 15 min at room temperature and absorbance at OD590 was read by plate reader.
MEASURED METRIC: % Cell Viability of 22rv1 at 1 μM (%)
// units = %; emit number, no label

Task item: Value lookup for % Cell Viability of 22rv1 at 1 μM; key = O=C(NCc1ccc(Oc2ccc(F)cc2)cc1)c1cccc(-c2cc(O)c3ncccc3c2)c1 [Compound 16d]
Reply: 35.1

Task item: Value lookup for % Cell Viability of 22rv1 at 1 μM; key = O=C(NCc1ccc(Oc2ccc(Cl)cc2)cc1)c1cccc(-c2cc(O)c3ncccc3c2)c1 [Compound 16b]
Reply: 33.2

Task item: Value lookup for % Cell Viability of 22rv1 at 1 μM; key = O=C(NCc1ccc(Oc2ccccc2)cc1)c1cccc(-c2cc(O)c3ncccc3c2)c1 [Compound 16a]
Reply: 29.5

Task item: Value lookup for % Cell Viability of 22rv1 at 1 μM; key = O=C(NCc1ccc(Oc2ccccc2Cl)cc1)c1cccc(-c2cc(O)c3ncccc3c2)c1 [Compound 16c]
Reply: 38.1
